Entries and their measured IC50 follow.
# target_system: ASK1/MAP3K5 (Homo sapiens (Human), UniProt Q99683)
# Sequence (Q99683 whole entry): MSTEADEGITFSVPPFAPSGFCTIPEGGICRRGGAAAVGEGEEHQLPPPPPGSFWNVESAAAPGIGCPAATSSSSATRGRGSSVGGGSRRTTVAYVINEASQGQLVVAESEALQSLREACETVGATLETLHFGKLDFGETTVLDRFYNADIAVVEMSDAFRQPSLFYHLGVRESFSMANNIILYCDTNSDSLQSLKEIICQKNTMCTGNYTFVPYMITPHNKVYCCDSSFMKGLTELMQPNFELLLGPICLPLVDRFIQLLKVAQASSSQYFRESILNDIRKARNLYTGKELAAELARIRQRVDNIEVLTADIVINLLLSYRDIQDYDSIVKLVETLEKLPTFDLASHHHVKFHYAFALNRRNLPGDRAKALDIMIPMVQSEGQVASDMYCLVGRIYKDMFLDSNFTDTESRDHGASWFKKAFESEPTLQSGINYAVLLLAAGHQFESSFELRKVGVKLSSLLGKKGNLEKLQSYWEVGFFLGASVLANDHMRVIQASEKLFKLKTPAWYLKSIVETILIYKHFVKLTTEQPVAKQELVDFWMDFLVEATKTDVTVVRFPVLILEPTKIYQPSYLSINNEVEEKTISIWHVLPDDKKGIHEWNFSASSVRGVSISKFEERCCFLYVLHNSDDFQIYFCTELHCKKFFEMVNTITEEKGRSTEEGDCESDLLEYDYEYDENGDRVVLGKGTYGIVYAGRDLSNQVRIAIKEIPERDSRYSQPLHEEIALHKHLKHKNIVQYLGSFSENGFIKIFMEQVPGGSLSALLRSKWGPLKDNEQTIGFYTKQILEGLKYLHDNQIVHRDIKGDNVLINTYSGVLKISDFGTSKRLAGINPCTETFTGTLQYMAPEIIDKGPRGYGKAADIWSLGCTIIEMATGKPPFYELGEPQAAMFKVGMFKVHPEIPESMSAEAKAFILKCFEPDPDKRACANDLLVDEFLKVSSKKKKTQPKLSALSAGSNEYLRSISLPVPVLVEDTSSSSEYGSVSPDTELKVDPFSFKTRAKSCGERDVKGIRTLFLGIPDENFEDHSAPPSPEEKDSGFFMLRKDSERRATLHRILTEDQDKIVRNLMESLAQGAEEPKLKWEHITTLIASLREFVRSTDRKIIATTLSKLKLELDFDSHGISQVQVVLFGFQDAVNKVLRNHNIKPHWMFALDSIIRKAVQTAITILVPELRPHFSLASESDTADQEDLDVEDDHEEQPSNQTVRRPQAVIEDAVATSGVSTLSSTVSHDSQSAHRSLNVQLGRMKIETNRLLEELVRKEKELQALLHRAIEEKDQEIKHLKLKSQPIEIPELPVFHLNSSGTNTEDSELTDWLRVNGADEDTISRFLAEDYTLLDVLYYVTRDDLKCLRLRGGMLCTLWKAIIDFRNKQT
# experiment_notes: ASK1/MAP3K5 assay by Reaction Biology Corp.
# Assay type: biochemical
# experimental_context: 20 μM myelin basic protein (MBP), 10 μM ATP

CC(C)(O)c1ccc2c(c1)C(=O)Nc1cccc(n1)-c1nncn1CCCCO2 : < 0.1 µM
O=C1Nc2cccc(n2)-c2nncn2CCCCOc2ccc(-n3ccnc3)cc21 : < 0.1 µM

Observed IC50 on ASK1/MAP3K5 (Homo sapiens (Human), UniProt Q99683), entry CN(C)CCn1cc(-c2cc3c(cc2F)OCC/C=C/Cn2cnnc2-c2cccc(n2)NC3=O)cn1 , equals < 0.1 µM

The measured IC50 that O=C1Nc2cccc(n2)-c2nncn2CCCCOc2c(Br)cccc21 showed for ASK1/MAP3K5 (Homo sapiens (Human), UniProt Q99683) is 0.1 to 1 µM

IC50 of O=C1Nc2cccc(n2)-c2nncn2CCCCOc2cc(F)c(-c3ccnc(F)c3)cc21 , assay on ASK1/MAP3K5 (Homo sapiens (Human), UniProt Q99683), is < 0.1 µM

ASK1/MAP3K5 (Homo sapiens (Human), UniProt Q99683) assay, compound CN(C)CCn1cc(-c2cc3c(cc2F)OCCCCn2cnnc2-c2cccc(n2)NC3=O)cn1 , recorded IC50 = < 0.1 µM

Known value: ASK1/MAP3K5 (Homo sapiens (Human), UniProt Q99683) IC50 of the compound N#Cc1cc2c(cc1F)OCCCCn1cnnc1-c1cccc(n1)NC2=O equals < 0.1 µM

The measured IC50 that C[C@H]1CCCOc2ccc(F)cc2C(=O)Nc2cccc(n2)-c2nncn21 showed for ASK1/MAP3K5 (Homo sapiens (Human), UniProt Q99683) is < 0.1 µM

Lab note: compound Cn1cc(-c2cc3c(cc2F)OCCCCn2cnnc2-c2cccc(n2)NC3=O)cn1 tested on ASK1/MAP3K5 (Homo sapiens (Human), UniProt Q99683); recorded IC50 was < 0.1 µM

Test item O=C1Nc2cccc(n2)-c2nncn2CCCCOc2ccc(N3C4CCC3COC4)cc21 ; ASK1/MAP3K5 (Homo sapiens (Human), UniProt Q99683); reported IC50 was < 0.1 µM

Measured on ASK1/MAP3K5 (Homo sapiens (Human), UniProt Q99683), CN1CCn2ncc(-c3cc4c(cc3F)OCCCCn3cnnc3-c3cccc(n3)NC4=O)c2C1 has a documented IC50 of < 0.1 µM

Measured on ASK1/MAP3K5 (Homo sapiens (Human), UniProt Q99683), O=C1Nc2cccc(n2)-c2nncn2C/C=C\CCOc2cc(F)c(N3CCOCC3)cc21 has a documented IC50 of < 0.1 µM

Measured on ASK1/MAP3K5 (Homo sapiens (Human), UniProt Q99683), C[C@H]1CCCOc2cc(F)c(N3CC4CC(C3)O4)cc2C(=O)Nc2cccc(n2)-c2nncn21 has a documented IC50 of < 0.1 µM

The reported ASK1/MAP3K5 (Homo sapiens (Human), UniProt Q99683) IC50 of O=C1Nc2cccc(n2)-c2nncn2CCCCOc2cc(F)c(-c3cncnc3)cc21 is < 0.1 µM

Known value: ASK1/MAP3K5 (Homo sapiens (Human), UniProt Q99683) IC50 of the compound C[C@H]1CCCOc2cc(S(C)(=O)=O)c(Br)cc2C(=O)Nc2cccc(n2)-c2nncn21 equals < 0.1 µM

IC50 on ASK1/MAP3K5 (Homo sapiens (Human), UniProt Q99683) for C[C@H]1CCCOc2cc(F)c(Br)cc2C(=O)Nc2cccc(n2)-c2nncn21 is < 0.1 µM

GET /values?item= C[C@H]1CCOc2cc(F)c(Br)cc2C(=O)Nc2cccc(n2)-c2nncn2C1 &system= ASK1/MAP3K5 (Homo sapiens (Human), UniProt Q99683) returns IC50: < 0.1 µM

The compound C[C@@H]1CCOc2cc(F)c(Br)cc2C(=O)Nc2cccc(n2)-c2nncn2C1 , tested on ASK1/MAP3K5 (Homo sapiens (Human), UniProt Q99683), showed IC50 of 0.1 to 1 µM

Bench note, ASK1/MAP3K5 (Homo sapiens (Human), UniProt Q99683): COCCOc1cc2c(cc1F)OCC[C@H](C)Cn1cnnc1-c1cccc(n1)NC2=O , IC50 reads < 0.1 µM

Bench note, ASK1/MAP3K5 (Homo sapiens (Human), UniProt Q99683): entry C[C@@H]1CCCn2cnnc2-c2cccc(n2)NC(=O)c2cc(C#N)ccc2O1 , its IC50 = < 0.1 µM

The value of IC50 recorded for CN(C)Cc1ccc2c(c1)C(=O)Nc1cccc(n1)-c1nncn1CCCCO2 when tested on ASK1/MAP3K5 (Homo sapiens (Human), UniProt Q99683) reads < 0.1 µM
